- TARGET: AICAR Tfase activity of avian ATIC (Gallus gallus)
- Sequence (P31335 whole entry): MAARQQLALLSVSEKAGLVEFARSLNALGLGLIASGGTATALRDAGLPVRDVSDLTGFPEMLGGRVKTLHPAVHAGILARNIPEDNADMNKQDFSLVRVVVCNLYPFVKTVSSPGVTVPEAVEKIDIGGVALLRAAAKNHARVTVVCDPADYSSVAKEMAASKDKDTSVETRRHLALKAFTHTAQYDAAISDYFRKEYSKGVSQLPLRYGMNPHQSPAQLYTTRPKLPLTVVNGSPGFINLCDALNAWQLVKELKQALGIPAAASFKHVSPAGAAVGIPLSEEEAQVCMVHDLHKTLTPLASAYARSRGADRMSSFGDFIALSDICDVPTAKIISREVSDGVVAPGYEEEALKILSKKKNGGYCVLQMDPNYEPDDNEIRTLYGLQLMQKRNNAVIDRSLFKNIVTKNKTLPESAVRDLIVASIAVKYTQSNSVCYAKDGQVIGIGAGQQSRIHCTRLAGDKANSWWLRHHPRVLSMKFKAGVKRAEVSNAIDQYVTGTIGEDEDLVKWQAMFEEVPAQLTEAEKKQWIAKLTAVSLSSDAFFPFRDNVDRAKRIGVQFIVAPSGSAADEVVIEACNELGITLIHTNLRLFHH
- ASSAY_TEXT: AICAR Tfase inhibition assay
Peptide text beside a SMILES is read from it.
VALUE_TYPE: Ki (µM)

INSERT INTO measurements (compound, unit, readout_qualifier, result_number) VALUES
  ('CC(C)[C@@H]1NC(=O)[C@H](CC(N)=O)NC(=O)[C@H](Cc2ccccc2)NC(=O)[C@H](Cc2ccc(O)cc2)NC(=O)[C@H](C)NC(=O)[C@H](CS)NC1=O [Compound 3, cyclo-CAYFNV] (cyclo(AYFNVC))', 'µM', '>', 2500),
  ('CC(C)[C@@H]1NC(=O)[C@H](CC(N)=O)NC(=O)[C@H](Cc2ccccc2)NC(=O)[C@H](C)NC(=O)[C@H](CCCNC(=N)N)NC(=O)[C@H](CS)NC1=O [Compound 4, cyclo-CRAFNV] (cyclo(AFNVCR))', 'µM', '>', 2500),
  ('CC(C)[C@@H]1NC(=O)[C@H](C)NC(=O)[C@H](Cc2ccccc2)NC(=O)[C@H](Cc2ccc(O)cc2)NC(=O)[C@H](CCCNC(=N)N)NC(=O)[C@H](CS)NC1=O [Compound 6, cyclo-CRYFAV] (cyclo(AVCRYF))', 'µM', '=', 368),
  ('C[C@@H]1NC(=O)[C@H](CC(N)=O)NC(=O)[C@H](Cc2ccccc2)NC(=O)[C@H](Cc2ccc(O)cc2)NC(=O)[C@H](CCCNC(=N)N)NC(=O)[C@H](CS)NC1=O [Compound 7, cyclo-CRYFNA] (cyclo(ACRYFN))', 'µM', '=', 252),
  ('CC(C)[C@@H]1NC(=O)[C@H](CC(N)=O)NC(=O)[C@H](Cc2ccccc2)NC(=O)[C@H](Cc2ccc(O)cc2)NC(=O)[C@H](CCCNC(=N)N)NC(=O)[C@H](C)NC1=O [Compound 2, cyclo-ARYFNV] (cyclo(ARYFNV))', 'µM', '=', 651),
  ('CC(C)[C@@H]1NC(=O)[C@H](CC(N)=O)NC(=O)[C@H](C)NC(=O)[C@H](Cc2ccc(O)cc2)NC(=O)[C@H](CCCNC(=N)N)NC(=O)[C@H](CS)NC1=O [Compound 5, cyclo-CRYANV] (cyclo(ANVCRY))', 'µM', '=', 38);
